# target of assay: HLA-A*0201 (Homo sapiens, UniProt P04439, D140Y/D185E/D98H/E176V/E277Q/G131W/G231S/I119V/I121R/I166T/I218V/L300P/L318F/N151K/N90K/P208A/P217A/Q86G/Q94H/R138H/R169H/T345S)
# assay comment: iScore calculation (iTOPIA system software)
# cond: multiparametric score of binding, off-rate and affinity
Residues, ends and D or L forms follow the SMILES beside them.

compound	iScore
CC[C@H](C)[C@H](NC(=O)[C@@H](N)Cc1c[nH]cn1)C(=O)N[C@@H](CC(C)C)C(=O)N[C@@H](Cc1c[nH]cn1)C(=O)N[C@H](C(=O)N[C@@H](CO)C(=O)N[C@@H](Cc1ccccc1)C(=O)N[C@@H](CC(C)C)C(=O)N[C@@H](C)C(=O)O)C(C)C [Peptide 238] (H-HILHVSFLA-OH; N-terminus and C-terminus assumed)	1.426
CC(C)C[C@H](NC(=O)[C@H](CS)NC(=O)[C@H](Cc1ccccc1)NC(=O)[C@H](CC(C)C)NC(=O)[C@@H](N)CC(C)C)C(=O)N[C@@H](CC(C)C)C(=O)N[C@H](C(=O)N[C@H](C(=O)N[C@H](C(=O)O)C(C)C)C(C)C)C(C)C [Peptide 359] (H-LLFCLLVVV-OH; N-terminus and C-terminus assumed)	0.674
CC(C)C[C@H](NC(=O)[C@H](Cc1c[nH]cn1)NC(=O)[C@H](Cc1ccccc1)NC(=O)[C@H](CCC(=O)O)NC(=O)[C@H](CO)NC(=O)[C@@H](NC(=O)[C@@H](NC(=O)[C@H](C)N)C(C)C)[C@@H](C)O)C(=O)N[C@H](C(=O)O)C(C)C [Peptide 203] (H-AVTSEFHLV-OH; N-terminus and C-terminus assumed)	0.533
